- Subject of test: alpha2C adrenergic receptor (Homo sapiens)
- Sequence (P18825 whole entry, species assumed): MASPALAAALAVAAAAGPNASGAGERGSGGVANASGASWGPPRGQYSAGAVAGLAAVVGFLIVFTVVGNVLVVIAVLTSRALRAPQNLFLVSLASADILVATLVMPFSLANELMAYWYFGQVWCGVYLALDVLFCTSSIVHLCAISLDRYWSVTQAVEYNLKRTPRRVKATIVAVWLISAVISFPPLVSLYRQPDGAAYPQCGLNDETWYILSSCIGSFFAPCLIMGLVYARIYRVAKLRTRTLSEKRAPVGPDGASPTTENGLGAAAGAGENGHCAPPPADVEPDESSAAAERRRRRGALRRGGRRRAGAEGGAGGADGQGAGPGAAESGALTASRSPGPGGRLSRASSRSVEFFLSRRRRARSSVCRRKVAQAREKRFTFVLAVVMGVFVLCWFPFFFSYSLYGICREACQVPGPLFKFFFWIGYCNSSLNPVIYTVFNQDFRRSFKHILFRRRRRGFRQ
- Assay overview: Receptor Selection and Amplification Technology (RSAT) assay, alpha2C
- Condition parameters: NIH-3T3 cells, agonism, read-out: EC50, Alpha 2C
pEC50: −log10 of the molar value.
# pEC50 listing for each entry below

[ask] Consider the molecule Cc1ccc2c(n1)CC(Cc1c[nH]c(=S)[nH]1)CC2 (single isomer, unassigned) [Compound 202] and give its measured pEC50.
[reply] < 5.00

Further cases:
[ask] GET /values?readout=pEC50&item= Cc1ccc2c(n1)CC(Cc1c[nH]c(=S)[nH]1)CC2 (racemic) [Compound 201]
[reply] < 5.00

---

- Subject of test: alpha2B adrenergic receptor (Homo sapiens)
- Sequence (P18089 1-450): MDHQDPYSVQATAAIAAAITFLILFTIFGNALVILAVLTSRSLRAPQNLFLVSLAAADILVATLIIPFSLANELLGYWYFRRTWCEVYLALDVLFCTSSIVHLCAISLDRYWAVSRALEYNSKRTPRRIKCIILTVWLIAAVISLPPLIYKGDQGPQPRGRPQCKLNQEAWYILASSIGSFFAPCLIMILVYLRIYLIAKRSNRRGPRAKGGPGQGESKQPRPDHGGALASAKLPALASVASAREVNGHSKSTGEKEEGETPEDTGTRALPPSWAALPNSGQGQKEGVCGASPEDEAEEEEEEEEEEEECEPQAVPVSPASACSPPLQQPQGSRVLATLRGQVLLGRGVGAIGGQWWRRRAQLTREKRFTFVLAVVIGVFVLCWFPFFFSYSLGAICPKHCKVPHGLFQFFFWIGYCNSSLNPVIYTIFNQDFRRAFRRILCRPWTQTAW
- Assay overview: Receptor Selection and Amplification Technology (RSAT) assay, alpha2B
- Condition parameters: RSAT, NIH-3T3 cells; agonism; read-out: EC50, Alpha 2B
Measurement label: pEC50
Note on units: pEC50 is unitless, being -log10 of a concentration expressed in mol/L.

[ask] Entry under review: Cc1ccc2c(n1)CC(Cc1c[nH]c(=S)[nH]1)CC2 (single isomer, unassigned) [Compound 202] . Reported pEC50?
[reply] 7.04

// next entry
[ask] Tell me the measured pEC50 of Cc1ccc2c(n1)CC(Cc1c[nH]c(=S)[nH]1)CC2 (racemic) [Compound 201] , please.
[reply] 6.95

---

Form field: pEC50 (one value per entry).
- Subject of test: alpha2A adrenergic receptor (Homo sapiens)
- Sequence (P08913 whole entry): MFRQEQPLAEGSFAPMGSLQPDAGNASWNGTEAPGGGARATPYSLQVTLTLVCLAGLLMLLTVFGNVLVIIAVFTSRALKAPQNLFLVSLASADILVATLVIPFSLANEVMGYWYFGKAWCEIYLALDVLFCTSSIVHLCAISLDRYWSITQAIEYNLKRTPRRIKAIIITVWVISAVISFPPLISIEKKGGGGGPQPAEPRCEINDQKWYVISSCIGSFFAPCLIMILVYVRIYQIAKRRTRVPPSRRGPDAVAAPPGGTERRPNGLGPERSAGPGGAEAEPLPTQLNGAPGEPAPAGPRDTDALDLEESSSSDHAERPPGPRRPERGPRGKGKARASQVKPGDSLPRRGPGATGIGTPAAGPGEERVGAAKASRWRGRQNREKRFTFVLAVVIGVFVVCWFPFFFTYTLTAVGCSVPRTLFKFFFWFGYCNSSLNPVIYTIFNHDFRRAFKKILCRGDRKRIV
- Assay overview: Receptor Selection and Amplification Technology (RSAT) assay, alpha2A
- Condition parameters: NIH-3T3 cells, agonism, read-out: EC50, Alpha 2A
- Excerpt: The imidazole-2-thione compounds of the invention are agonists of alpha2 adrenergic receptors, particularly they tend to be specific or selective agonists of alpha2B and/or to a lesser extent alpha2C adrenergic receptors, in preference over alpha2A adrenergic receptors. […] Al., 1995, Pharmacol. Toxicol. 76, pp. 308-311 (incorporated herein by reference) and is also described below. […]
pEC50: −log10 of the molar value.

[ask] Given the molecule Cc1ccc2c(n1)CC(Cc1c[nH]c(=S)[nH]1)CC2 (racemic) [Compound 201] , what is its reported pEC50?
[reply] < 5.00

Here's the next entry for you.
[ask] Look up pEC50 for this molecule: Cc1ccc2c(n1)CC(Cc1c[nH]c(=S)[nH]1)CC2 (single isomer, unassigned) [Compound 202]
[reply] < 5.00
